- target-under-test: HIV-1 JR-CSF Env I420A (HIV-1 (isolate JR-CSF)) (UniProt P20871)
- assay-name: cell-based or functional assay
Items are presented alongside their recorded log10(Fold IC50 increase relative to wild-type).
Note: values are log10 of Fold IC50 increase relative to wild-type expressed in fold.

Field: example entries. Status: answers known.
PGT-125 (antibody, V domains shown) VH: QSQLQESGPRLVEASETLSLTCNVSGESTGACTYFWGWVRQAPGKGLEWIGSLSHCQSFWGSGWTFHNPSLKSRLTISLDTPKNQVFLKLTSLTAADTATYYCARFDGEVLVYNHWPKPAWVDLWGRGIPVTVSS VL: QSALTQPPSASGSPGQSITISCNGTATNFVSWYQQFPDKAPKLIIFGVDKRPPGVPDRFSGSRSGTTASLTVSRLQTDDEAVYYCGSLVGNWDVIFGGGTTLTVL	0.04
PGT-130 (antibody, V domains shown) VH: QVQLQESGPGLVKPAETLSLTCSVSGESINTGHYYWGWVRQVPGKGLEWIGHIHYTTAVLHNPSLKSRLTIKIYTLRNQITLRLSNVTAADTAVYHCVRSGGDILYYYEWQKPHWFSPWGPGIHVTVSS VL: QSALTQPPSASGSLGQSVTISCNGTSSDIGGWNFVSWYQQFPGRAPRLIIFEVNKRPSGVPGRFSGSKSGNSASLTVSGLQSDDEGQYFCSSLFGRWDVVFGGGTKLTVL	0.99
PGT-128 (antibody, V domains shown) VH: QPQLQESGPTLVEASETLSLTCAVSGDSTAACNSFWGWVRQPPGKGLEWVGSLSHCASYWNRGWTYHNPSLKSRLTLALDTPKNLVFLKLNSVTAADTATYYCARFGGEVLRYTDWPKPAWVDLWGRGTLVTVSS VL: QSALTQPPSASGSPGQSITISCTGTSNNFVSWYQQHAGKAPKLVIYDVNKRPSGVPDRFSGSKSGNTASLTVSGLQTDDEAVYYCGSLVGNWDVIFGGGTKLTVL	-0.10
PGT-127 (antibody, V domains shown) VH: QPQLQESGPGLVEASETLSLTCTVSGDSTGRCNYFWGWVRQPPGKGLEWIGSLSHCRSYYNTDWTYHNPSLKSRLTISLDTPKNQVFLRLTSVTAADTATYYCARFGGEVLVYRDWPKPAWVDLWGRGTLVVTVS VL: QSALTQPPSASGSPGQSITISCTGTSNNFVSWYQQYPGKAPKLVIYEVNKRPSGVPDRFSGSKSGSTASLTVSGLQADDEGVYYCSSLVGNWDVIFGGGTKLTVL	0.26

// next entry
Read the entry PGT-131 (antibody, V domains shown) VH: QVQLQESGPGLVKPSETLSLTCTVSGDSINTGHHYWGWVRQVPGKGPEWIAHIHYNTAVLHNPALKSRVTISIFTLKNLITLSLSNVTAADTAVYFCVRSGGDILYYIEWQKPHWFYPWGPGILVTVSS VL: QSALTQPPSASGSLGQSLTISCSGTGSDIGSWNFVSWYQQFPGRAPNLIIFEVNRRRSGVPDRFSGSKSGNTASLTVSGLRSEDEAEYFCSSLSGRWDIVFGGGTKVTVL and write its reported log10(Fold IC50 increase relative to wild-type).
2.18
